# target.or.test.system: Gamma-secretase
# experiment.notes: Inhibition of gamma-secretase in human HeLa cells assessed as inhibition of amyloid beta (1 to 40) production by DELFIA-based immunoassay
# Assay type: cell-based
endpoint.label: IC50 (µM)
Please give a number only; it is taken to be in µM.

# input compound: CCC[C@H](NC1CCc2cccc(Cl)c2C1)C(=O)Nc1cn(C(C)(C)CN2CCCC2)cn1 (mixture of isomers) ; wanted: its IC50 0.031

Input CCC[C@H](NC(CC)CC)C(=O)Nc1cn(C(C)(C)CN2CCCC2)cn1 6.12

###

# target.or.test.system: Gamma-secretase
# experiment.notes: Inhibition of gamma-secretase in human H4 cells expressing APP Swedish mutant assessed as inhibition of amyloid beta (1 to x) production by whole cell assay
endpoint.label: log10 of IC50 (log10 of the value in µM)
# log10 transformed; quantity=IC50; unit=µM

Example cases with answers are listed next.
[[record]]
compound = "CCC[C@H](N[C@H]1CCc2cc(F)cc(F)c2C1)C(=O)Nc1cn(C(C)(C)CNCC(F)(F)F)cn1"
endpoint_value = -2.31

[[record]]
compound = "CCC[C@H](NC1COc2ccccc2C1)C(=O)Nc1cn(C(C)(C)CN2CCCC2)cn1 (some centres not stated)"
endpoint_value = -0.81

[[record]]
compound = "CCC[C@H](NC1CCc2cccc(Cl)c2C1)C(=O)Nc1cn(C(C)(C)CN2CCCC2)cn1 (mixture of isomers)"
endpoint_value = -1.33

[[record]]
compound = "CCC[C@H](NC1CCc2ccccc2C1)C(=O)Nc1cn(C(C)(C)CN2CCCC2)cn1 (some centres not stated)"
endpoint_value = -1.27

[[record]]
compound = "CCC[C@H](N[C@H]1CCc2cc(F)cc(F)c2C1)C(=O)Nc1cn(C(C)(C)CNC(C)C)cn1"
endpoint_value = -1.71

[[record]]
compound = "CCC[C@H](N[C@H]1CCc2cc(F)cc(F)c2C1)C(=O)Nc1cn(C(C)(C)CN2CCOCC2)cn1"
endpoint_value = -2.16


What measured log10 of IC50 is associated with CCC[C@H](NC(CC)CC)C(=O)Nc1cn(C(C)(C)CN2CCCC2)cn1 on Gamma-secretase? -0.51

Input CCC[C@H](NC1CCc2cc(F)ccc2C1)C(=O)Nc1cn(C(C)(C)CN2CCCC2)cn1 (mixture of isomers) -1.71

Input CCC[C@H](NCCc1cc(F)cc(F)c1)C(=O)Nc1cn(C(C)(C)CN2CCCC2)cn1 -0.12

Input CCC[C@H](N[C@H]1CCc2cc(F)cc(F)c2C1)C(=O)Nc1cn(C(C)(C)CN2CCCC2)cn1 -2.54

Input CCC[C@H](N[C@H]1CCc2cc(F)cc(F)c2C1)C(=O)Nc1cn(C(C)(C)CN2CCCCC2)cn1 -2.48

Input CCC[C@H](NC1CCc2cc(F)cc(F)c2C1)C(=O)Nc1cn(C(C)(C)CN2CCCC2)cn1 (mixture of isomers) -2.27

Input CCC[C@H](NCc1cc(F)cc(F)c1)C(=O)Nc1cn(C(C)(C)CN2CCCC2)cn1 -0.32

Input CCC[C@H](NCCC(C)C)C(=O)Nc1cn(C(C)(C)CN2CCCC2)cn1 0.49

Input CCC[C@H](N[C@H]1CCc2cc(F)cc(F)c2C1)C(=O)Nc1cn(C(C)(C)CN(C)C)cn1 -2.34

Input CCC[C@H](NC1Cc2ccccc2C1)C(=O)Nc1cn(C(C)(C)CN2CCCC2)cn1 -0.57

Input CCC[C@H](NC1CCc2cc(Cl)ccc2C1)C(=O)Nc1cn(C(C)(C)CN2CCCC2)cn1 (mixture of isomers) -1.91
